- system: ScAbp1
- test_protocol: SPOT peptide array binding signal intensity (averaged, normalized) (arbitrary units (background-subtracted, floor 0; scale differs between SH3 domains)); higher = stronger binding of the SH3 domain to the peptide
measurement_kind: SPOT peptide array binding signal intensity
Give bare numbers.

Required: SPOT peptide array binding signal intensity, one value per binder below.
1. PSPSSSPPPIPKTAN
2. NHSRSLFSLPGNQQS
3. SKAKRPKFLLDLQIK
4. LASNSPPVYPKRIRH

1: 9; 2: 48; 3: 19; 4: 39.5
